- TARGET OR SYSTEM: HIV-1 protease (Human immunodeficiency virus type 1 group M subtype B, UniProt P04585)
- TEST: biochemical
- PROTOCOL CONDITIONS: read-out: HIV-1 Protease % Inhib, dose 1.000 uM
OBSERVABLE: inhibition at 1 µM

Here is how some compounds turned out for inhibition at 1 µM.
• CCCC(c1ccccc1)c1c(O)c2ccc(OC)cc2oc1=O (stereo not drawn) = < 10%
• CCC(c1cccc(NC(=O)CCCc2ccccc2)c1)c1c(O)c2ccccc2oc1=O (stereo not drawn) = < 10%
• CCC(c1c(O)c2ccccc2oc1=O)c1cccc2ccccc12 (stereo not drawn) = < 10%
• CC(c1cccc(C(=O)NCc2ccccn2)c1)c1c(O)c2ccccc2oc1=O (stereo not drawn) = < 10%

For the 5 compounds below, give their inhibition at 1 µM values.
1. CCC(c1ccc(OCC(O)CO)cc1)c1c(O)c2ccccc2oc1=O (stereo not drawn)
2. CC(C)C(c1ccccc1)c1c(O)c2ccccc2oc1=O (stereo not drawn)
3. O=c1oc2c(c(O)c1C(c1ccccc1)C1CC1)CCCCC2 (stereo not drawn)
4. CCC(c1cccc(NC(=O)CCc2ccc(O)cc2)c1)c1c(O)c2ccccc2oc1=O (stereo not drawn)
5. CCC(c1ccc(O)cc1)c1c(O)c2ccccc2oc1=O (stereo not drawn)

["< 10%", "12.1%", "70.1%", "< 10%", "< 10%"]

---

- TARGET OR SYSTEM: UniProt P04585
- TEST: biochemical
- PROTOCOL CONDITIONS: read-out: HIV-1 Protease % Inhib, dose 1.000 uM
OBSERVABLE: inhibition at 1 µM (%)
Answers are plain numbers, in %.

- CCC(c1cccc(NC(=O)CC[C@H](N)C(=O)O)c1)c1c(O)c2ccccc2oc1=O (stereo partly drawn): 26.8
- CCC(c1cccc(NC(=O)CN)c1)c1c(O)c2ccccc2oc1=O (stereo not drawn): 22.1
- CCC(c1cccc(NC(=O)C(C)N)c1)c1c(O)c2ccccc2oc1=O (stereo not drawn): 77.8
- O=c1oc2c(c(O)c1C(c1ccccc1)C1CC1)CCCCCCCC2 (stereo not drawn): 23

Now for a further molecule.
Output inhibition at 1 µM of CCCC(c1ccc(C)cc1)c1c(O)c2ccccc2oc1=O (stereo not drawn) 13.4

---

- TARGET OR SYSTEM: UniProt:P04585
- TEST: biochemical
- PROTOCOL CONDITIONS: dose 1.100 uM
OBSERVABLE: HIV-1 Protease % Inhib (%)
One number for each entry, in %.

- N#Cc1ccc(S(=O)(=O)Nc2cccc(C(c3c(O)c4c(oc3=O)CCCCCC4)C3CC3)c2)cc1 (centres unmarked): 110.07

For the 6 compounds below, give their HIV-1 Protease % Inhib values.
1. Cn1cnc(S(=O)(=O)Nc2cccc([C@@H](c3c(O)c4c(oc3=O)CCCCCC4)C3CC3)c2)c1
2. CCCCOc1ccc(S(=O)(=O)Nc2cccc(C(c3c(O)c4c(oc3=O)CCCCCC4)C3CC3)c2)cc1 (centres unmarked)
3. CC(C)(C)OC(=O)N[C@@H](Cc1c[nH]cn1)C(=O)Nc1cccc(C(c2c(O)c3c(oc2=O)CCCCCC3)C2CC2)c1 (single isomer, unassigned) [Example 241]
4. I.O=c1oc2c(c(O)c1C(c1cccc(NS(=O)(=O)CCCN3CCOCC3)c1)C1CC1)CCCCCC2 (centres unmarked) [Example 365B (Third Title Compound)]
5. CCCC(c1cccc(NS(=O)(=O)c2ccc(C#N)cc2)c1)c1c(O)c2c(oc1=O)CCCCCC2 (single isomer, unassigned)
6. O=c1oc2c(c(O)c1C(c1ccccc1)C1CC1)CCCCCC2CC1CCCO1 (single isomer, unassigned)

107.75
87.61
98.65
93.46
92.17
96.52

---

- TARGET OR SYSTEM: HIV-1 protease (Human immunodeficiency virus type 1 group M subtype B, UniProt P04585)
- TEST: biochemical
- PROTOCOL CONDITIONS: read-out: HIV-1 Protease % Inhib, dose 1.230 uM
Classification field: TRUE = inhibition at 1.23 µM at or over 60%; FALSE = inhibition at 1.23 µM under 60%.

These solved cases illustrate the format of a correct answer.
• CCC(c1ccccc1)c1c(O)c2c(oc1=O)C(Cc1ccccc1)CCCCC2 (stereo not drawn) [Example 122] = TRUE
• C=CCCC1CCCCc2c1oc(=O)c(C(c1ccccc1)C1CC1)c2O (stereo not drawn) [Example 135] = TRUE
• CC(C)(C)OC(=O)NCCC(=O)Nc1cccc(C(c2c(O)c3ccccc3oc2=O)C2CC2)c1 (stereo not drawn) [Example 165] = TRUE
• CCC(c1cccc(NS(=O)(=O)CCNC(=O)OC(C)(C)C)c1)c1c(O)c2ccccc2oc1=O (stereo not drawn) [Example 140] = FALSE

Item O=c1oc2c(c(O)c1C(c1ccccc1)C1CC1)CCCCCCC2 (stereo not drawn) [Example 117] with inhibition at 1.23 µM of 60% or above? TRUE

Item O=c1oc2ccccc2c(O)c1C1CCN(Cc2ccccc2)c2ccccc21 (stereo not drawn) [Example 159] with inhibition at 1.23 µM of 60% or above? FALSE

Item CCC(c1ccccc1)c1c(O)c2c(oc1=O)C(CC1CC1)CCC2 (stereo not drawn) [Example 124] with inhibition at 1.23 µM of 60% or above? FALSE

---

- TARGET OR SYSTEM: HIV-1 protease (Human immunodeficiency virus type 1 group M subtype B, UniProt P04585)
- TEST: biochemical
- PROTOCOL CONDITIONS: dose 10.000 uM; read-out: HIV-1 Protease % Inhib
Where a name gives a salt, the structure may show the parent alone.
I'd be grateful if you could share measured inhibition at 10 µM for these entries.
Give bare numbers, in %.

Here is how some compounds turned out for inhibition at 10 µM.
* O=c1oc2c(c(O)c1C(c1ccc(CNS(=O)(=O)c3ccc(F)cc3)o1)C1CC1)CCCCCC2 (stereo not shown) | 66.4
* CCC(c1cccc(NC(=O)CCN)c1)c1c(O)c2c(oc1=O)CCCCCC2 (stereo not shown) [Example 220, monohydrochloride] | 94
* O=C(Nc1ccccc1)Nc1cccc(C(c2c(O)c3c(oc2=O)CCCCCC3)C2CC2)c1 (stereo not shown) | 83.7

For the 6 compounds below, give their inhibition at 10 µM values.
1. O=c1oc2c(c(O)c1C(c1cccc(NS(=O)(=O)c3c(Cl)cccc3Cl)c1)C1CC1)CCCCCC2 (stereo not shown)
2. Cn1cnc(S(=O)(=O)Nc2ccc(C(c3c(O)c4c(oc3=O)CCCCCC4)C3CC3)cc2)c1 (stereo not shown)
3. Nc1cc(N)cc(C(c2c(O)c3c(oc2=O)CCCCCC3)C2CC2)c1 (stereo not shown)
4. O=c1oc2c(c(O)c1C(c1ccc(CO)o1)C1CC1)CCCCCC2 (stereo not shown)
5. O=c1oc2c(c(O)c1C(c1cccc(NS(=O)(=O)CCCN3CCOCC3)c1)C1CC1)CCCCCC2 (stereo not shown) [Example 365B (Second Title Compound)]
6. O=c1oc2c(c(O)c1C(c1cccc(N(CCc3ccccc3)S(=O)(=O)c3ccccc3)c1)C1CC1)CCCCCC2 (stereo not shown)

87.5
83
37.2
90.2
92.6
26.6

For the 2 compounds below, give their inhibition at 10 µM values.
1. O=c1oc2c(c(O)c1C(Cc1ccccc1)Cc1ccccc1)CCCCC2
2. Cc1cccc(Cl)c1S(=O)(=O)Nc1cccc(C(c2c(O)c3c(oc2=O)CCCCCC3)C2CC2)c1 (stereo not shown)

[63.2, 85.8]

For the 5 compounds below, give their inhibition at 10 µM values.
1. O=c1oc2c(c(O)c1C(c1ccccc1)C1CC1)CCC2 (stereo not shown)
2. Nc1ccc(C(c2c(O)c3c(oc2=O)CCCCCC3)C2CC2)cc1 (stereo not shown)
3. COCCOCCC1CCCCc2c1oc(=O)c(C(c1ccccc1)C1CC1)c2O (stereo not shown)
4. O=c1oc2c(c(O)c1C(c1cc(NS(=O)(=O)c3cccc4cccnc34)cc(NS(=O)(=O)c3cccc4cccnc34)c1)C1CC1)CCCCCC2 (stereo not shown)
5. O=c1oc2ccccc2c(O)c1C(=Cc1ccccc1)c1ccccc1 [Example 21, 3-(1,2-Diphenylethenyl)4-hydroxycoumarin]

1: 99.8; 2: 102; 3: 94.1; 4: 13.1; 5: 12.1

---

- TARGET OR SYSTEM: HIV-1 protease (Human immunodeficiency virus type 1 group M subtype B)
- TEST: biochemical
- PROTOCOL CONDITIONS: read-out: HIV-1 Protease % Inhib, dose 0.123 uM
Classification field: y = inhibition at 0.123 µM at or over 70%; n = inhibition at 0.123 µM under 70%.

- COc1cccc(Br)c1S(=O)(=O)Nc1cccc(C(c2c(O)c3c(oc2=O)CCCCCC3)C2CC2)c1 (stereo not drawn) [Example 337]: n

Now, please, on to the next compound.
Item O=c1oc2c(c(O)c1C(c1cccc(NS(=O)(=O)c3cccc4nonc34)c1)C1CC1)CCCCCC2 (stereo not drawn) [Example 290] with inhibition at 0.123 µM of 70% or above? y
